# EXPERIMENTAL TARGET: recombinant factor H binding protein (FHbp) ID 1 (Neisseria meningitidis serogroup B …, UniProt Q9JXV4)
# Sequence (Q9JXV4 20-274): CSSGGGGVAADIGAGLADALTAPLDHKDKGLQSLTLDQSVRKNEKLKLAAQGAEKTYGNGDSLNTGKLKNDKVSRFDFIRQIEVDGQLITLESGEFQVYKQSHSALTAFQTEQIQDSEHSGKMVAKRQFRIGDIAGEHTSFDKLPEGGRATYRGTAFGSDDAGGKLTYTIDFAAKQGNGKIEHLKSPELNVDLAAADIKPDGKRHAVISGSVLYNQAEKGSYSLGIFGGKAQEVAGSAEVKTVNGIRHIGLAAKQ
# PROTOCOL DETAILS: SPR
# reported koff; entries follow
Express the result in s⁻¹ but write the number alone.

// known answers, use as guide
BINDER	koff / s⁻¹
human anti-FHbp Fab 5B (Fab, V domains shown) VH: EVQLLESGGGLVQPGGSLRLSCAASGYTFGSYAMTWVRQGPGKGLEWVSTILGSGADTYYADSVKGRFTISRDNSRNTLFMQLSSLRAEDTAVYYCAKLGYYDTWGQGTLVTVSS VL: EIVLTQSPATLSLSPGERATLSCRASQSIASYLYWYQQKPGQAPRLLIFDASNRATGTPARFSGSGSGTDFTLTISSLEPEDFAVYYCQQRNNWPRALTFGGGTKVEIK	0.0041
human anti-FHbp Fab 4B (Fab, V domains shown) VH: EVQLVESGGGLAQPGGSLRLSCVASGSTFGSYAIYWVRQAPGKGLEWVSGISGSGTKIDYADSVKGRFTISRDISKNTLYLQMNSLRAEDTAVYYCAKLGFFDYWGQGTQVTVSS VL: EIVLTQSPDTLSLSPGERATLSCRASQSVSTYLFWYQKKPGQAPRLLIFDASNRATGIPVRFSGSGSGTDFTLTISSLEPEDFAVYYCQQRSNWPQTFGGGTKVEIK	0.0006
human anti-FHbp Fab 6B (Fab, V domains shown) VH: EVQLVESGGGLVQPGGSLRLSCAASGFTFSSYAMSWVRQAPGKGLEWVSAISGSGGSSHYTDSVKGRFTISRDNSKNTLWLQMNSLRAEDTAIYYCAKTSGSYYYHYEIDVWGQGTTVTVSS VL: EIVLTQSPGTLSLSPGERATLSCRASQSVSSSYLAWYQQKPGQAPRLLIYGTSNRATGIPDRFSGSGSGTDFTLTVSRLEPEDFAVYYCQQYGSSPCSFGQGTKLELK	0.0004
human anti-FHbp Fab 9B (Fab, V domains shown) VH: EVQLVQSGAELKKPGESLKISCKASGYTFTNYWVVWVRQMPGEGLEWMGSIHPRDSDARYSLSFEGRVTFSVDKSTTTAYLQWSSLKVSDSAIYYCARLSQVSGWSPWVGPWGQGTLVTVSS VL: DIVMTQSPSSLSASVGDRVTITCRASQSISVSLNWYQQKPGKAPKVLIYAASRLQSGIPSRFSGSGSGSHFTLTISSLQPEDFATYYCQETYSDLMYTFGQGTKVEIK	4e-05
human anti-FHbp Fab 10C (Fab, V domains shown) VH: QVQLVESGGGVVQPGRSLRLSCPASGFTFSRYALHWVRQAPGKGLEWVAVISFDGSFKYYADSVKGRFSISRDNFKNTLYLQMNSLRAEDTAVYYCAKDDTLHASGWGGFDYWGQGALVTVSS VL: EIVLTQSPATLSLSPGERATLSCRASQSVTSYLTWYQHKPGQAPRLLIYHTSYRATGIPARFSGSGSGTDFTLSITSLEPEDFAVYYCQQRSNWPFTFGPGTKVDIK	0.0005

Next:
Prompt: Could you tell me which koff is on file for human anti-FHbp Fab 8A (Fab, V domains shown) VH: QVQLVESGGGLVQPGGSLRLSCVTSGFTFRSYAMTWVRQAPGKGLEWVSSISHSGGSTKYADSVKGRLTISRDDSMDTLYLQMNSLRAEDTAIYYCAKDQISYPAASPLDYWGRGTLVTVSS VL: EIVLTQSPGTLSLSPGERATLSCRASQSFSSFSLAWYQQKPGQAPRLLIYAPSNRATGIADRFSGSGSGTDFTLTISRLEPEDFAVYYCQQYGSSPITFGQGTRLEIK ?
Response: 0.002
